Please provide measured log10(IC50) for the entries that follow.
System tested: recombinant human Lp-PLA2 (Homo sapiens)
Sequence (Q13093 22-441): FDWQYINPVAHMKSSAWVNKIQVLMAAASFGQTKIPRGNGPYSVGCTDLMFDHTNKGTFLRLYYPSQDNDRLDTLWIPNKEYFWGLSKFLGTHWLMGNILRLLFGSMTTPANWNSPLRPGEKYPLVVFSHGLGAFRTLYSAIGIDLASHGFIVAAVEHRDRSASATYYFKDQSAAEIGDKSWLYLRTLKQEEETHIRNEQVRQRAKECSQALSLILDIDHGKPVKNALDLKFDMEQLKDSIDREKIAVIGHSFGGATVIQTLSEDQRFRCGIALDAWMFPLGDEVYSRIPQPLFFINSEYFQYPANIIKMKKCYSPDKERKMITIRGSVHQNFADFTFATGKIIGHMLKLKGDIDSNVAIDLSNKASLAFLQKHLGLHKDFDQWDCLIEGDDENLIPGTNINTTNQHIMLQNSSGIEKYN
Assay method text: Recombinant human Lp-PLA2 assay (rhLp-PLA2, PED6 assay)
Type: biochemical
Condition info: recombinant human Lp-PLA2, PED6 substrate; read-out: rhLp-PLA2 (PED6 assay) (pIC50) (converted)
Protocol: (1) Recombinant Human Lp-PLA2 Assay (rhLp-PLA2) (Also Referred to as “PED6” Assay) […] The PED6 assay was run as an unquenched 10 μL assay. […] The plates were read for fluorescence intensity at ex: 480/em: 540 using ViewLux microplate imager for Envision spectrofluroimeters. […]
Scale: decimal log of IC50, IC50 in pM.

Given the molecule CCCNC(=O)CN1CCCn2c1cc(OCc1ccc(F)c(F)c1)nc2=O , what is its reported log10(IC50)?
3.50

Given the molecule O=C(CN1CCCn2c1cc(OCc1ccc(F)c(F)c1)nc2=O)N1CCOCC1 , what is its reported log10(IC50)?
2.90

Given the molecule CN1CCN(C(=O)CN2CCCn3c2cc(OCc2ccc(F)c(F)c2)nc3=O)CC1 , what is its reported log10(IC50)?
2.50

Given the molecule O=C(CN1CCCn2c1cc(OCc1ccc(F)c(F)c1)nc2=O)N1CCC(F)CC1 , what is its reported log10(IC50)?
2.90

Given the molecule O=c1nc(OCc2ccc(F)c(F)c2)cc2n1CCCN2Cc1ccc(Cl)cc1 [Example E2] , what is its reported log10(IC50)?
2.80

Given the molecule O=c1nc(OCc2ccc(Oc3ccc(Cl)c(C(F)(F)F)c3)c(F)c2)cc2n1CCCN2C1CC1 , what is its reported log10(IC50)?
2.70

Given the molecule O=C(CN1CCCn2c1cc(OCc1cc(F)c(F)c(F)c1)nc2=O)N1CCOCC1 , what is its reported log10(IC50)?
2.70

Given the molecule O=C(CN1CCCn2c1cc(OCc1ccc(F)c(F)c1)nc2=O)N1CCC(F)(F)CC1 , what is its reported log10(IC50)?
2.30

Origin of measurements: patent US9296755B2
